tested on: HCMV AD169; experiment: HCMV plaque reduction assay, MRC-5 cells, strain AD169; type: cell-based, Human cytomegalovirus; conditions: Human betaherpesvirus 5, 144 h; hCMV AD169, MRC5 cells, plaque assay, 6-days duration
pEC50: −log10 of the molar value.
value.type: pEC50

{"compound": "Nc1nc2c(ncn2[C@@H]2OC(CO)=CC2O)c(=O)[nH]1 (stereo partly drawn)", "subject.of.test": "HCMV AD169", "value.type": "pEC50", "qual": "<", "quantitative.readout": 4.00}
{"compound": "CCCCCCCCCCCCCCCCOCCCOP(=O)(O)OCC1=CC(O)C(n2ccc(=O)[nH]c2=O)O1 (stereo not drawn)", "subject.of.test": "HCMV AD169", "value.type": "pEC50", "qual": "=", "quantitative.readout": 4.74}
{"compound": "CCCCCCCCCCCCCCCCOCCCOP(=O)(O)OCC1=C[C@H](O)[C@H](n2cnc3c(=O)[nH]c(N)nc32)O1", "subject.of.test": "HCMV AD169", "value.type": "pEC50", "qual": "=", "quantitative.readout": 4.66}
